Examples of compounds with documented normalised response follow.
System: SK-BR-3
Experiment: normalised response (% of control), CellTiter-Glo; higher = more viable cells (100 = DMSO, 0 = benzethonium chloride kill control)
Conditions: incubation time: 72 h
Numeric answer only, unit % assumed.

compound	observation type	units	readout value
O=C(NC[C@H](O)CO)c1ccncc1Nc1ccc(I)cc1F [Pimasertib] (100 nM)	normalised response	%	94

**Query** Item under review: CO[C@@H](C(=O)N1Cc2[nH]nc(NC(=O)c3ccc(N4CCN(C)CC4)cc3)c2C1)c1ccccc1 [Danusertib] (100 nM) . Reported normalised response?
**Result** 82.5

**Query** Also O=C(Nc1c[nH]nc1-c1nc2ccc(CN3CCOCC3)cc2[nH]1)NC1CC1 [AT9283] (10 nM) ?
**Result** 93.5

**Query** Also CC(C)N(CCCNC(=O)Nc1ccc(C(C)(C)C)cc1)C[C@H]1O[C@@H](n2cc(Br)c3c(N)ncnc32)[C@H](O)[C@@H]1O [SGC0946] (100 nM) ?
**Result** 90

====

Tested on: CAL-148
Experiment: normalised viability (% of control), CellTiter-Blue; higher = more viable cells (about 100 = DMSO control)
Conditions: incubation time: 72 h
observation type: normalised viability (%)
Numeric answer only, unit % assumed.

Reference set (2 entries):
compound	assay system	normalised viability / %
Cn1cc(CNCC2CCN(c3ncc(C(=O)NO)cn3)CC2)c2ccccc21 (300 nM)	CAL-148	1.57
Nc1ccccc1NC(=O)c1ccc(CNc2nccc(-c3cccnc3)n2)cc1 [Mocetinostat] (3000 nM)	CAL-148	37.3

**Query** Item under review: O=C(Nc1c[nH]nc1-c1nc2ccc(CN3CCOCC3)cc2[nH]1)NC1CC1 [AT9283] (3000 nM) . Reported normalised viability?
**Result** 67.2

**Query** Also COc1ccc(-c2cc3c(C)nc(N)nc3n([C@H]3CC[C@H](OCCO)CC3)c2=O)cn1 (3000 nM) ?
**Result** 6.69

**Query** Also C[C@]12O[C@H](C[C@]1(O)CO)n1c3ccccc3c3c4c(c5c6ccccc6n2c5c31)CNC4=O [Lestaurtinib] (300 nM) ?
**Result** 75.9

**Query** Also Cc1ccc(Nc2nccc(N(C)c3ccc4c(C)n(C)nc4c3)n2)cc1S(N)(=O)=O [Pazopanib] (3000 nM) ?
**Result** 67.7

**Query** Also CS(=O)(=O)N1CCN(Cc2cc3nc(-c4cccc5[nH]ncc45)nc(N4CCOCC4)c3s2)CC1 [GDC-0941] (3000 nM) ?
**Result** 18.6

====

System: HDQ-P1
Test: normalised response (% of control), CellTox Green; higher = less cell death (100 = DMSO, 0 = benzethonium chloride kill control)
Details: incubation time: 72 h
// NO strictly below 90% in normalised response; YES otherwise

Some solved cases for reference:
compound	discrete label
CNC(=O)c1cc(Oc2ccc(NC(=O)Nc3ccc(Cl)c(C(F)(F)F)c3)cc2)ccn1 [Sorafenib] (100 nM)	NO
CCCCC/C=C/C=C1/C(=O)C=C[C@@H]1C/C=C\CCCC(=O)O [15D-PGJ2] (800 nM)	NO
Cc1c(Cn2c(C)nc3c(C(=O)O)cc(N4CCOCC4)cc32)cccc1C(F)(F)F (10000 nM)	YES

**Query** Please indicate if the recorded normalised response for COc1ccc(-c2cc3c(C)nc(N)nc3n([C@H]3CC[C@H](OCCO)CC3)c2=O)cn1 (1000 nM) meets or exceeds 90%.
**Result** NO

**Query** Also CC(=O)OC[C@H]1O[C@@H]([S-])[C@H](OC(C)=O)[C@@H](OC(C)=O)[C@@H]1OC(C)=O.CCP(CC)CC.[Au+] [Auranofin] (25 nM) ?
**Result** YES

**Query** Also Cc1nc(Nc2ncc(C(=O)Nc3c(C)cccc3Cl)s2)cc(N2CCN(CCO)CC2)n1 [Dasatinib] (10 nM) ?
**Result** YES

**Query** Also O=S(=O)(c1cccc2cnccc12)N1CCCNCC1 [Fasudil] (500 nM) ?
**Result** YES

====

Test system: Hs578T
Experiment: normalised response (% of control), CellTox Green; higher = less cell death (100 = DMSO, 0 = benzethonium chloride kill control)
Conditions: incubation time: 72 h
observation type: normalised response (%)
Numeric answer only, unit % assumed.

Reference set (5 entries):
molecule	units	normalised response
C[C@]12C=CC(=O)C=C1CC[C@@H]1[C@@H]2[C@@H](O)C[C@@]2(C)[C@H]1CC[C@]2(O)C(=O)CO [Prednisolone] (100 nM)	%	110
O=S(=O)(c1cccc2cnccc12)N1CCCNCC1 [Fasudil] (5000 nM)	%	66
C[C@]12C=CC(=O)C=C1CC[C@@H]1[C@@H]2[C@@H](O)C[C@@]2(C)[C@H]1CC[C@]2(O)C(=O)CO [Prednisolone] (1000 nM)	%	104
CS(=O)(=O)N1CCN(Cc2cc3nc(-c4cccc5[nH]ncc45)nc(N4CCOCC4)c3s2)CC1 [Pictilisib] (100 nM)	%	109
CS(=O)(=O)N1CCN(Cc2cc3nc(-c4cccc5[nH]ncc45)nc(N4CCOCC4)c3s2)CC1 [Pictilisib] (10000 nM)	%	98.8

**Query** Item under review: O=C1c2c(O)ccc(O)c2C(=O)c2c(NCCNCCO)ccc(NCCNCCO)c21 [Mitoxantrone] (100 nM) . Reported normalised response?
**Result** 106

**Query** Also C[C@]12O[C@H](C[C@]1(O)CO)n1c3ccccc3c3c4c(c5c6ccccc6n2c5c31)CNC4=O [Lestaurtinib] (10 nM) ?
**Result** 108

====

Examples of compounds with documented normalised response follow.
Test system: CAL-51
Assay: normalised response (% of control), CellTiter-Glo; higher = more viable cells (100 = DMSO, 0 = benzethonium chloride kill control)
Conditions: incubation time: 72 h
Numeric answer only, unit % assumed.

compound	units	normalised response
CCCCC/C=C/C=C1/C(=O)C=C[C@@H]1C/C=C\CCCC(=O)O [15D-PGJ2] (80 nM)	%	123
Cc1c(CN2CCN(C(=O)[C@H](C)O)CC2)sc2c(N3CCOCC3)nc(-c3cnc(N)nc3)nc12 [GDC-0980] (1000 nM)	%	30.9

**Query** Item under review: CC/C(=C(\c1ccc(O)cc1)c1ccc(OCCN(C)C)cc1)c1ccccc1 [4-hydroxytamoxifen] (1000 nM) . Reported normalised response?
**Result** 102

**Query** Also COc1ccc(-c2cc3c(C)nc(N)nc3n([C@H]3CC[C@H](OCCO)CC3)c2=O)cn1 (1000 nM) ?
**Result** 10

====

Tested on: DU-4475
Assay: normalised viability (% of control), CellTiter-Blue; higher = more viable cells (about 100 = DMSO control)
Details: 30 nM; incubation time: 72 h
Examples of molecules with documented normalised viability follow.
Numeric answer only, unit % assumed.

structure as smiles	normalised viability, %
C[C@]12C=CC(=O)C=C1CC[C@@H]1[C@@H]2[C@@H](O)C[C@@]2(C)[C@H]1CC[C@]2(O)C(=O)CO	116
Cc1ccc(Nc2nccc(N(C)c3ccc4c(C)n(C)nc4c3)n2)cc1S(N)(=O)=O	100
O=C(Nc1c[nH]nc1-c1nc2ccc(CN3CCOCC3)cc2[nH]1)NC1CC1	94.1

**Query** Item under review: O=C(CCBr)N1CCN(C(=O)CCBr)CC1 . Reported normalised viability?
**Result** 105

====

System: HCC1599
Test: normalised viability (% of control), CellTiter-Blue; higher = more viable cells (about 100 = DMSO control)
Settings: 1000 nM; incubation time: 72 h
Examples of compounds with documented normalised viability follow.
Numeric answer only, unit % assumed.

**Query** Item under review: O=C(Nc1c[nH]nc1-c1nc2ccc(CN3CCOCC3)cc2[nH]1)NC1CC1 . Reported normalised viability?
**Result** 72.5

====

System: BT-549
Assay: normalised response (% of control), CellTox Green; higher = less cell death (100 = DMSO, 0 = benzethonium chloride kill control)
Details: incubation time: 72 h
observation type: normalised response (%)
Numeric answer only, unit % assumed.

Reference set (5 entries):
compound	normalised response (%)
Cc1c(CN2CCN(C(=O)[C@H](C)O)CC2)sc2c(N3CCOCC3)nc(-c3cnc(N)nc3)nc12 [GDC-0980] (1000 nM)	108
CCN(CC)CCNC(=O)c1c(C)[nH]c(/C=C2\C(=O)Nc3ccc(F)cc32)c1C [Sunitinib] (10 nM)	92.9
Cc1c(Cn2c(C)nc3c(C(=O)O)cc(N4CCOCC4)cc32)cccc1C(F)(F)F (1000 nM)	111
Nc1cccc2c1CN(C1CCC(=O)NC1=O)C2=O (stereo not drawn) [Lenalidomide] (1000 nM)	125
CC[C@@]1(O)C(=O)OCc2c1cc1n(c2=O)Cc2cc3c(CN(C)C)c(O)ccc3nc2-1 [Topotecan] (10000 nM)	56.9

**Query** # returns recorded normalised response (system: BT-549) for CC[C@@]1(O)C(=O)OCc2c1cc1n(c2=O)Cc2cc3c(CN(C)C)c(O)ccc3nc2-1 [Topotecan] (100 nM)
**Result** 92.8

**Query** Also Nc1ccccc1NC(=O)c1ccc(CNc2nccc(-c3cccnc3)n2)cc1 [Mocetinostat] (100 nM) ?
**Result** 99.1

**Query** Also O=C(Nc1c[nH]nc1-c1nc2ccc(CN3CCOCC3)cc2[nH]1)NC1CC1 [AT9283] (10 nM) ?
**Result** 105

Where do these numbers come from? They come from the supplement of paper PMC4862054.
